Value source: patent US20230117592A1

experimental-target: 12-LOX (Homo sapiens)
Sequence (P18054 whole entry): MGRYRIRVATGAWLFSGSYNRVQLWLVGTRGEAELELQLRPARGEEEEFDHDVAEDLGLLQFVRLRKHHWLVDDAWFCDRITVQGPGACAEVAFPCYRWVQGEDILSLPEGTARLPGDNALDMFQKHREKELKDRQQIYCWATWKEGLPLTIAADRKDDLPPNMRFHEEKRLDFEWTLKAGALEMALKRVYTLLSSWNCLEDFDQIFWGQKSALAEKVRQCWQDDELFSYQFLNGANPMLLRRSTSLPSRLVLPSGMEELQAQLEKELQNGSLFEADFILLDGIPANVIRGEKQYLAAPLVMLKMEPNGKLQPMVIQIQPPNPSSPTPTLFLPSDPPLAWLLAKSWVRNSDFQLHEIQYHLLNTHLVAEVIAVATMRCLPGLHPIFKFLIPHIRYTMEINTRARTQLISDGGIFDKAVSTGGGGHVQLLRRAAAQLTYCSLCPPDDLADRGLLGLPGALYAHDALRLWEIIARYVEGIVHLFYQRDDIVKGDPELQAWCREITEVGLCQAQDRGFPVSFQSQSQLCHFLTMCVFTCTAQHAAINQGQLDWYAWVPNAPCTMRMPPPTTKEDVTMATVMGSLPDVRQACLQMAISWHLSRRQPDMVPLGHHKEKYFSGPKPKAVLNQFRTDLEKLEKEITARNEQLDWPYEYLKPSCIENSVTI
measurement-description: 12-LOX fluorescent assay (in vitro lipoxygenase inhibition)
Type: biochemical
run-conditions: 100 nM recombinant 12-LOX, 20 μM AA, DHR123 fluorescence; several values in a cell = repeat determinations; read-out: IC50 (μM) values for in vitro lipoxygenase inhibition, 12-LOX
Lab note: anything with IC50 below 0.05 µM is marked Satisfied; values at 0.05 µM or higher are marked Not satisfied.

Example results:
- molecule: "Fc1ccc(CNc2cc(F)c(NCCn3cncn3)c(-c3ccccc3)c2)cc1"
  answer-label: "Satisfied"
- molecule: "Cc1noc(C)c1-c1ccc(Nc2ccccc2)cc1NCCn1cncn1"
  answer-label: "Not satisfied"
- molecule: "c1ccc(Nc2cccc(NCCn3cncn3)c2)cc1"
  answer-label: "Not satisfied"

Please state whether IC50 is below 0.05 µM for Cc1cc(Nc2ccc(Cl)c(F)c2)ccc1NCC1(CN2CCCC2)COC1
Satisfied

I wonder whether CN(C)CCCc1c(NCc2ccc(F)cc2)cccc1-c1cccc2c1NCC2 has IC50 below 0.05 µM. Can you tell?
Not satisfied

###

experimental-target: 5-LOX (Homo sapiens, UniProt P09917)
Sequence (P09917 whole entry): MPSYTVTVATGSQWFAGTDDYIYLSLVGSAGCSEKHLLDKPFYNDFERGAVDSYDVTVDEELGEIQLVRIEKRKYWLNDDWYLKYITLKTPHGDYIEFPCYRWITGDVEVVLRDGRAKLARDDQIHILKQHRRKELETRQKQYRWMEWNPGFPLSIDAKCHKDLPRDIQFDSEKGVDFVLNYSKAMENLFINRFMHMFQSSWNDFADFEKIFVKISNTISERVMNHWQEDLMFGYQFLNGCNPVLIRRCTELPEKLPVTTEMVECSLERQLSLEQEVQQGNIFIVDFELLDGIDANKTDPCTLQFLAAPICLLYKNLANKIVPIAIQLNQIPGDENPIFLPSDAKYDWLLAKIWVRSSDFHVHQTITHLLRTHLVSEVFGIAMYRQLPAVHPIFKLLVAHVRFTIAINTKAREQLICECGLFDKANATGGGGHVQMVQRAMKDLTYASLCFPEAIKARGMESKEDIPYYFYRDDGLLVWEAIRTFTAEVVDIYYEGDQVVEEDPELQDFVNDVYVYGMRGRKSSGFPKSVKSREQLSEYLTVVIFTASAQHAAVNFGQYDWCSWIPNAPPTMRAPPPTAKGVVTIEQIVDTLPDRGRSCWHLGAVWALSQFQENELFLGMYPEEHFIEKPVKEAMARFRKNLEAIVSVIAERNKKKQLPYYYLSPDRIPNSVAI
measurement-description: 5-LOX fluorescent assay (in vitro lipoxygenase inhibition)
Assay type: biochemical
run-conditions: recombinant 5-LOX cell lysate, 20 μM AA, DHR123 fluorescence; several values in a cell = repeat determinations; read-out: IC50 (μM) values for in vitro lipoxygenase inhibition, 5-LOX
parameter: IC50 (µM)
Please reply with the bare figure in µM and do not write the unit itself.

- compound: "c1ccc(Nc2cccc(NCCn3cncn3)c2)cc1"
  IC50 [µM]: 0.49
- compound: "c1ccc(CNc2ccc(-c3ccccc3)c(NCCn3cncn3)c2)cc1"
  IC50 [µM]: 0.55
- compound: "Cn1cncc1-c1ccc(Nc2ccccc2)cc1NCCn1cncn1"
  IC50 [µM]: 1.45
- compound: "c1ccc(CNc2cnc(-c3ccccc3)c(NCCn3cncn3)c2)cc1"
  IC50 [µM]: 4.78
- compound: "O=C(Nc1ccc(NCCn2cncn2)c(-c2ccccc2)c1)c1ccccc1"
  IC50 [µM]: 3.77

Please report the recorded IC50 for c1ccc(CNc2cnc(NCCn3cncn3)c(-c3ccccc3)c2)cc1 .
2.93

Need IC50 of c1cc(NCCCn2cncn2)cc(NC2CCCCC2)c1 , thanks.
0.4

Requested field: IC50. Item: O=C(Nc1ccc(-c2ccccc2)c(NCCn2cncn2)c1)c1ccccc1
25.7

# lookup: IC50 of FC(F)(F)C(Nc1ccc(NCCCN2CCOCC2)c(C2CCOCC2)c1)c1ccccc1 (stereo not drawn)
0.07

Fill in the blank: the reported IC50 of Fc1ccc(Nc2ccc(-c3ccc(Cl)cc3)c(NCCn3cncn3)c2)cc1 is ____.
0.16

// IC50 lookup, key: CN(CCn1cncn1)c1cc(Nc2ccccc2)ccc1-c1ccccc1
0.25

I'd like to know its IC50. The compound in question is FC1(F)CCC(CNc2cccc(NCCn3cncn3)n2)CC1
1.26

Could you share which IC50 value was measured for FC(F)(F)C(Nc1ccc(NCCn2cncn2)cn1)c1ccccc1 (stereo not drawn) ?
1.19

Which IC50 reading was recorded for the compound Fc1ccc(Nc2ccc(NCC3(Cn4cncn4)COC3)c(C(F)(F)F)c2)c(Cl)c1 ?
0.64

Could you tell me which IC50 is on file for CN(C)CCNc1cc(Nc2ccccc2)ccc1-c1ccccc1 ?
0.24

I would be grateful if you could share the reported IC50 for Fc1ccc(Nc2ccc(NCCCN3CCOCC3)c(C(F)(F)F)c2)cc1 .
0.07

Need IC50 of OCc1ccccc1-c1ccc(Nc2ccccc2)cc1NCCn1cncn1 , thanks.
0.94

Give the measured IC50 of Cn1nccc1-c1ccc(Nc2ccccc2)cc1NCCn1cncn1 .
1.35
